pIC50: recorded values
biological target: CDK1/Cyclin E1 (Homo sapiens, UniProt P06493); test: NanoBRET live-cell target engagement, CDK1-NanoLuc/Cyclin E1 in HEK-293; assay type: binding; settings: independent experiment 1; read-out: CDK1/E1 IC50
Sequence (P06493 whole entry): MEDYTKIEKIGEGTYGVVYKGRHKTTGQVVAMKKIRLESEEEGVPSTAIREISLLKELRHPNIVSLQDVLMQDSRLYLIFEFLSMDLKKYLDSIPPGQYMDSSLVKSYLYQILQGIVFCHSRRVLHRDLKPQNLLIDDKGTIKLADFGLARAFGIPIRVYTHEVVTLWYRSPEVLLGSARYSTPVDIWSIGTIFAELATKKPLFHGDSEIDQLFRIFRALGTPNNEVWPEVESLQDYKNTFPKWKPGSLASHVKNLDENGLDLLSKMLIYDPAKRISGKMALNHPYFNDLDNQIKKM
Sequence (P24864 whole entry partner): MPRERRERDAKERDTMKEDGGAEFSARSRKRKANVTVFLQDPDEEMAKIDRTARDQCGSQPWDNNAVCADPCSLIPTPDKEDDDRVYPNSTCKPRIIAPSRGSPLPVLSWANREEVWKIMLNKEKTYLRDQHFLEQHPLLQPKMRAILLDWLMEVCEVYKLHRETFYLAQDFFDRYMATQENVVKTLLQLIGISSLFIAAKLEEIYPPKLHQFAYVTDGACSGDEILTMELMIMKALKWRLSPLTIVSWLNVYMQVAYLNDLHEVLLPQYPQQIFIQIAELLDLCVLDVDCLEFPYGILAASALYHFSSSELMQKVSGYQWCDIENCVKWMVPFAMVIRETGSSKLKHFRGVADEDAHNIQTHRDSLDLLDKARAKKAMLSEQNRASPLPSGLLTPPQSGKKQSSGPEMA
Expect pIC50 as a plain number equal to -log10 of the molar concentration.

compound="CN1C/C=C/CCOc2cccc(c2)-c2ccnc(n2)Nc2cccc(c2)C1 [SB1317]" recorded_result=6.70
compound="CC(C)CC(=O)Nc1[nH]nc2c1CN(C(=O)C1CCN(C)CC1)C2(C)C [PHA-793887]" recorded_result=6.10

Reported pIC50 for COCCN1CCN(Cc2ccc(-c3n[nH]c4c3C(=O)c3c(NC(=O)NN5CCOCC5)cccc3-4)cc2)CC1 [RGB286638] was 7.43
